// SPOT peptide array binding signal intensity lookup, one value per entry
- subject_of_test: CaFus1
- protocol_text: SPOT peptide array binding signal intensity (averaged, normalized) (arbitrary units (background-subtracted, floor 0; scale differs between SH3 domains)); higher = stronger binding of the SH3 domain to the peptide
observable: SPOT peptide array binding signal intensity

SSAAPPPPPRRATPE = 134
TIRRRAPLSLLESHT = 1540
RRRDFGAPANKRPRR = 241
